details: basic group
Here, each record is paired with measured pKa data.
Form field (numeric): enter value without unit.

Record excerpt, results attached:
Cc1ccc(S(=O)(=O)N2CCNCC2)cc1
7.41
CCN(CC)CC(O)C[NH+](CC)CC
7.74
COCC/N=C(\c1ccccc1)C(C)(C)O
5.75
COc1ccc2nc3ccccc3cc2c1
3.82

Fill in: pKa of CCCCCCCN(CCCCCCC)c1ccccc1 is ___
3.33

// query pKa value for entry c1ccc(Cc2cc(-c3ccccc3)nnc2NCCN2CCOCC2)cc1
6.95

###

Catalogue of pKa readings, one per entry.
conditions: basic group
Answer with a number only.

Solved cases (3 shown):
C=CCN1CCCCC1
9.66
NC(=O)CCCc1ccncc1
5.64
Nc1cccc(O)c1
4.29

Please look up its pKa: N#Cc1ccc2c(c1)CCN2
2.8

Need pKa of Cc1cccc(CO)n1 , thanks.
5.2

Fill blank: measured pKa of the compound COCCNc1ccc(OC)cc1 is ____.
5.02

I'd like to know its pKa. The compound in question is CC[NH+](CC)CCC(C)Nc1c2ccc(Cl)cc2nc2ccc(OC)cc12 (stereo not given)
7.2

Reported pKa, compound Cc1cc2ccccc2nc1C : ____
4.93

Form field: reported pKa of C1CNCCSCCN1
10

Give its pKa value. Item: COc1ccc(CON)cc1
4.42

State the recorded pKa for this entry: COC(=O)C(N)CCONC(N)=O (stereo not given)
6.95

Could you share which pKa value was measured for Nc1ccc2cccnc2c1 ?
6.65

For CCCC(=O)C(CCN1CCOCC1)(c1ccccc1)c1ccccc1 , what is its reported pKa?
7.17

What value of pKa has been reported for the following compound? CSc1nc2cc3c(cc2[nH]1)CCCC3
5

Query: pKa; subject: N[C@@H]1CCCC[C@@H]1[NH3+]
6.35

Request the reported pKa associated with CCCCN(C)C
10

So what's the measured pKa for this one? NC(Cc1ccccc1)c1nnn[n-]1 (stereo not given)
8.18

What value of pKa has been reported for the following compound? Cc1cnccc1N
9.15

Consider the compound O=C([O-])c1ccc(O)c2ncccc12 and give its measured pKa.
4.8

For the compound CN(C)CCC/N=C(\c1ccccc1)c1ccc2ccccc2c1 , what pKa is on record?
9.2
